The compounds listed here are annotated with their melting point.

| COMPOUND | melting point |
| --- | --- |
| CCC(COC)Nc1cc(C)nc(Oc2c(C=O)cccc2OC)c1[N+](=O)[O-] (stereo not shown) | 126.5 to 130.5 °C |

Report melting point for CCC(CC)Nc1cc(C)nc(Nc2c(C)cc(C)cc2C)c1C(N)=O please. 204 to 206 °C

Please look up its melting point: CCC(CC)Nc1cc(C)nc(Oc2c(C)cc(C)cc2C)c1NC(C)=O 154 to 156 °C

// melting point lookup, key: Cc1cc(C)c(Oc2nc(C)cc(C(O)C(F)(F)F)c2C)c(C)c1 (stereo not shown) 134 to 139 °C

---

Quick reference for melting point among some compounds
Structures can show the parent of a compound that is named as a salt.

Check out these entries, answers already filled in.
| COMPOUND | VALUE_MEASURED |
| --- | --- |
| CCNc1cc(C)nc(Sc2c(C)cc(C)cc2C)c1C | 114 to 116 °C |
| CCN(CC)c1cc(C)nc(Oc2c(C)cc(C)cc2C)c1C (as salt: HCl) | 180 to 181 °C |
| CCC(Nc1cc(C)nc(Oc2c(C)cc(Cl)cc2C)c1CO)C(C)O (stereo not drawn) | 180 to 182 °C |
| CCC(CC)Nc1cc(C)nc(Oc2c(C)cc(C)cc2C)c1CN | 117 to 119 °C |
| CCC(CC)Oc1cc(C)nc(Oc2c(C)cc(C)cc2C)c1[N+](=O)[O-] | 106 to 109 °C |

GET /values?readout=melting point&item= CCC(CC)Oc1cc(C)nc2c1n(C)c(=O)n2-c1c(C)cc(C)cc1C 151 to 153 °C

Need melting point of CCC(CC)Oc1cc(C)nc(Nc2c(C)cc(C)cc2C)c1 , thanks. 98 to 100 °C

Request the reported melting point associated with C#CC(CC)Nc1cc(C)nc(Oc2c(C)cc(C)cc2C)c1C(=O)O (stereo not drawn) 131 to 133 °C

I have this compound here, CCC(CC)Oc1nc(C)nc(Nc2c(C)cc(C)cc2C)c1C(N)=O , and I need its recorded melting point. 174 to 176 °C

Looking for the measured melting point of CCCN(CC)c1cc(C)nc(Oc2c(C)cc(C)cc2C)c1C (as salt: HCl) , can you help? 167 to 169 °C

Find the recorded melting point belonging to CCC(CC)Oc1cc(C)nc(Nc2c(C)cc(C)cc2C)c1C(=O)N(C)C (as salt: HCl) and report it. 197 to 200 °C

Recorded melting point for CCC(CC)Oc1cc(C)nc(Nc2c(C)cc(C)cc2C)c1CNC(=O)CCl , please? 142 to 144 °C

Return reported melting point; argument: CCC(COC)Nc1cc(C)nc(Oc2c(OC)cc(OC)cc2OC)c1[N+](=O)[O-] (stereo not drawn) 126.8 to 129.5 °C

Fill in the blank: the reported melting point of CCC(CC)Nc1cc(C)nc2c1nc(N)n2-c1c(C)cc(C)cc1C is ____. 158 to 160 °C

Give its melting point value. Item: CCC(CC)Oc1cc(C)nc(Oc2c(C)cc(COC)cc2C)c1C 58 to 60 °C

Entry under review: CCC(CC)Oc1cc(C)nc(Nc2c(C)cc(C)cc2C)c1C(=O)n1ccnc1 . Reported melting point? 120 to 122 °C

Which value of melting point has been reported for CCC(CC)Oc1nc(C)nc(Nc2c(C)cc(C)cc2C)c1CO in the records? 121 to 123 °C

Value lookup for melting point; key = CCC(CC)Nc1cc(C)nc(Sc2c(C)cc(C)cc2C)c1C 108 to 110 °C

---

Counter-ions that a name gives are not always drawn.
QUANTITY_NAME: melting point

Look up melting point for this compound: CCC(CC)Nc1cc(C)nc(Oc2c(C)cc(Cl)cc2C)c1N [Example 97] 72 to 74 °C

Would you kindly share the measured melting point for CCC(CC)Oc1cc(C)nc(Nc2c(C)cc(C)cc2C)c1CC(C(=O)OC)C(=O)OC [Example 185] ? 96 to 98 °C

# get_value(readout='melting point', item= CCC(CC)Nc1cc(C)nc2c1nc(C)n2-c1c(C)cc(C)cc1C [Example 282] ) 101 to 103 °C

Which melting point is reported for this compound? CCN(CC)c1cc(C)nc(Oc2c(C)cc(Cl)cc2C)c1C (as salt: HCl) [Example 78] 184 to 185 °C

---

Where a name gives a salt, the structure may show the parent alone.
Entries annotated with measured melting point

Sample answers from the record:
| COMPOUND | melting point |
| --- | --- |
| CCC(O)C(CC)Nc1cc(C)nc(Oc2c(C)cc(Cl)cc2C)c1CO (centres unmarked) [Example 139] | 145 to 148 °C |
| CCCN(CC)c1cc(C)nc(Oc2c(C)cc(Cl)cc2C)c1C (as salt: HCl) [Example 77] | 74 to 76 °C |
| CCOC(=S)SCc1c(OC(CC)CC)cc(C)nc1Nc1c(C)cc(C)cc1C [Example 190] | 55 to 57 °C |
| CCN(C)c1cc(C)nc(Oc2c(C)cc(C)cc2C)c1C (as salt: HCl) [Example 74] | 173 to 174 °C |

# get_value(readout='melting point', item= CCC(CC)Oc1nc(C)nc(Nc2c(C)cc(C)cc2C)c1C(=O)O [Example 273] ) 118 to 120 °C

Reference source for all entries: patent US6956047B1
